target: T1, Perilipin epitope 6 peptide EVRVPWLHSLAAAQE (SEQ ID NO. 333) (human, Biotin-PEG Spacer and GGSGGS Linker (SEQ ID NO. 438) at the N-terminus, or Biotin-PEG Spacer and AAAAA Linker (SEQ ID NO. 439) at the C-terminus); experiment: phage display selection and ELISA on biotinylated target peptide
T1 construct: Two biotinylated variants were used for selection and ELISA; On the peptide array it stood without biotin; also called target peptide
T1 peptide: EVRVPWLHSLAAAQE

{"columns": ["binder", "binding result"],
 "data": [
  ["Antibody No. 46 (antibody, V domains shown, human IgG1, lambda or kappa light chain; also called 447-B07) VH: QVQLVQSGGGVVQPGRSLRLSCAASGFTFSSYAMHWVRQAPGKGLEWVAVISYDGSNKYYADSVKGRFTISRDNSKNTLYLQMNSLRAEDTAVYYCARDQYDILTGYGGTALDYWGQGTLVTVSS VL: QSALTQPPSASGSPGQSVTISCTGTSSDVGGYNYVSWYQQHPGEAPKLMIYEVSKRPSGVPDRFSGSKSGNTASLTVSGLQAEDEADYYCSSYAGSNNLVFGGGTKLTVL", "binds"],
  ["Antibody No. 57 (antibody, V domains shown, human IgG1, lambda or kappa light chain; also called 447-H10) VH: QVQLVESGAEVKKPGASVKVSCKASGYTFTSYYMHWVRQAPGQGLEWMGIINPSGGSTSYAQKFQGRVTMTRDTSTSTVYMELSSLRSEDTAVYYCARMTTSLGFDYWGQGTLVTVSS VL: DIQLTQSPSSVSASVGDKVTITCRASQGISNWLAWYQLKPGKAPKLLVYAASSLQSGVPSRFSGSGSGTDFTLTISNLQPEDFATYYCQQANSLPLTFGGGTRLEIK", "binds"],
  ["Antibody No. 48 (antibody, V domains shown, human IgG1, lambda or kappa light chain; also called 447-B08) VH: EVQLVQSGGGVVQPGRSLRLSCAASGFTFSSYAMHWVRQAPGKGLEWVAVISYDGSNKYYADSVKGRFTISRDNSKNTLYLQMNSLRAEDTAVYYCAAESAYSSSWSGLRFDPWGQGTLVTVSS VL: QSVLTQPPSVSGAPGQRVTISCTGSSSNIGAGYDVHWYQQLPGTAPKLLIYGNSNRPSGVPDRFSGSKSGTSASLAITGLQAEDEADYYCQSYDSSLSGYVFGTGTKLTVL", "binds"]
]}
